Test: amyloid nucleation score (Sup35N fusion, yeast selection) (log enrichment); library NNK1; higher = more nucleation; inactive = no reads after selection;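 further: zero at mode of non-aggregating sequences after 7 days selection at 30°C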
Please enter Condition met where amyloid nucleation score is greater than or equal to 0.3, and Condition not met where it is lower.

Worked examples, 3 substances total:
> print(dat)
           substance     discrete.label
1   WLKVGGEFSWSVQSVY  Condition not met
2   RTSRHVVVRREMRDRT  Condition not met
3  NNSLISTGVRMNHVVLR  Condition not met

Would you say TGYVVVMVYCWSCLGGQSVA shows amyloid nucleation score at minimum 0.3?
Condition not met

Record AGFVYFPMYNKLMELFTRGI ; criterion: amyloid nucleation score no lower than 0.3. Met?
Condition met

Confirm if amyloid nucleation score reported for the substance VNHCMMHEYLGGLLSSVIG is 0.3 or above.
Condition met

Please tell me: is the substance SASVAHLCDYVVENI at or over 0.3 in terms of amyloid nucleation score?
Condition not met

Identify whether the reported amyloid nucleation score of the following substance is 0.3 or greater: HWSSSS
Condition not met

// inclusive: amyloid nucleation score at least 0.3? input: GLGVIVVCPVCGSKGVCGKW
Condition not met

Does the substance NMSESCNMDTLYGYDLRQWV have recorded amyloid nucleation score that is 0.3 or more?
Condition not met
